Reported IC50 values are given for each entry in this list.
Target: Type-1 angiotensin II receptor (Oryctolagus cuniculus, UniProt P34976)
Sequence (P34976 whole entry): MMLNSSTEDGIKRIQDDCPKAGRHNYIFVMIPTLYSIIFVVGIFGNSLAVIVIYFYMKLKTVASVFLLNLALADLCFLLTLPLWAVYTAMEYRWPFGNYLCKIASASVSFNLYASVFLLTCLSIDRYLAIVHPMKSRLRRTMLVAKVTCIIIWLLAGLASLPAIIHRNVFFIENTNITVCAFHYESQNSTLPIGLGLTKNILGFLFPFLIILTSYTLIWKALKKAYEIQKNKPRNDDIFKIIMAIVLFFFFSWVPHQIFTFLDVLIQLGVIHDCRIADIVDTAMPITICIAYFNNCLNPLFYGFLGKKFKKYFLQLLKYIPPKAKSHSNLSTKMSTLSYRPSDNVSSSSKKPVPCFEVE
Test: Inhibition of angiotensin Angiotensin II receptor, type 1 in rabbit aorta using [125I-Sar1,Ile8] angiotensin II binding assay
Format: tissue-based
RECORDED_METRIC: IC50

[[record]]
molecule = "O=C(N1CCN(C(=O)N(c2ccccc2)c2ccccc2)CC1)N(c1ccccc1)c1ccccc1"
recorded_metric = "IC50"
readout_value = "> 100 µM"

[[record]]
molecule = "CCCCCN(CCCCC)C(=O)N1CCN(C(=O)N(c2ccccc2)c2ccccc2)CC1"
recorded_metric = "IC50"
readout_value = "12.5 µM"

[[record]]
molecule = "CC1CN(C(=O)N(c2ccccc2)c2ccccc2)C(C)CN1C(=O)N(c1ccccc1)c1ccccc1 (stereo not drawn)"
recorded_metric = "IC50"
readout_value = "> 100 µM"


* * *

Entries and their measured IC50 follow.
target: Type-2 angiotensin II receptor (Rattus norvegicus, UniProt P35351); test: Inhibition of Angiotensin II receptor, type 2 in rat midbrain using [125I]-Sar1,Ile8 angiotensin II binding assay
Sequence (P35351 whole entry): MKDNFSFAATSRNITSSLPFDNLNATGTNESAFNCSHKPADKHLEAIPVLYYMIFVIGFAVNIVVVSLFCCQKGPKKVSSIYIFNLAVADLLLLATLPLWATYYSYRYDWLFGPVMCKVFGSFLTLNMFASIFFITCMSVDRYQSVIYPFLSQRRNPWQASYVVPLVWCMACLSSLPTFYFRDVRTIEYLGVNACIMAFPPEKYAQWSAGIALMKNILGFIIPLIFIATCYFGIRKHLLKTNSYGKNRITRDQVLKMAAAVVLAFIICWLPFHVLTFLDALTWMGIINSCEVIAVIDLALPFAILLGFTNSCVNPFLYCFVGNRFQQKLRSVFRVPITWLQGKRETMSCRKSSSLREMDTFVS
RECORDED_METRIC: IC50 (nM)

[[record]]
compound = "CCCCCN(CCCCC)C(=O)N1CCN(C(=O)N(c2ccccc2)c2ccc(Br)cc2)[C@H](C(=O)O)C1"
unit_string = "nM"
readout_value = 2.7

[[record]]
compound = "CCCCCN(CCCCC)C(=O)N1CCN(C(=O)N(c2ccccc2)c2cccc(OC)c2)[C@H](C(=O)O)C1"
unit_string = "nM"
readout_value = 7.8

[[record]]
compound = "CCCCCN(CCCCC)C(=O)N1CCN(C(=O)N(c2ccccc2)c2ccccc2)[C@@H](C(=O)O)C1"
unit_string = "nM"
readout_value = 4.5

[[record]]
compound = "CCCCCN(CCCCC)C(=O)N1CCN(C(=O)N(c2ccccc2)c2ccc(O)cc2)[C@H](C(=O)O)C1"
unit_string = "nM"
readout_value = 230

[[record]]
compound = "CCCCCN(CCCCC)C(=O)N1CCN(C(=O)N(c2ccccc2)c2ccccc2)[C@H](C(=O)OC)C1"
unit_string = "nM"
readout_value = 12

[[record]]
compound = "CCCCCN(CCCCC)C(=O)N1CCN(C(=O)N(c2ccccc2)c2cccc(C)c2)[C@H](C(=O)O)C1"
unit_string = "nM"
readout_value = 0.7

[[record]]
compound = "CC1CN(C(=O)N(c2ccccc2)c2ccccc2)CCN1C(=O)N(c1ccccc1)c1ccccc1 (stereo not drawn)"
unit_string = "nM"
readout_value = 15

[[record]]
compound = "CCCCCN(CCCCC)C(=O)N1CCN(C(=O)N(CCCCC)CCCCC)[C@H](C(=O)O)C1"
unit_string = "nM"
readout_value = 82

